Target: PI3Kα (Homo sapiens (Human), UniProt P42336)
Sequence (P42336 whole entry): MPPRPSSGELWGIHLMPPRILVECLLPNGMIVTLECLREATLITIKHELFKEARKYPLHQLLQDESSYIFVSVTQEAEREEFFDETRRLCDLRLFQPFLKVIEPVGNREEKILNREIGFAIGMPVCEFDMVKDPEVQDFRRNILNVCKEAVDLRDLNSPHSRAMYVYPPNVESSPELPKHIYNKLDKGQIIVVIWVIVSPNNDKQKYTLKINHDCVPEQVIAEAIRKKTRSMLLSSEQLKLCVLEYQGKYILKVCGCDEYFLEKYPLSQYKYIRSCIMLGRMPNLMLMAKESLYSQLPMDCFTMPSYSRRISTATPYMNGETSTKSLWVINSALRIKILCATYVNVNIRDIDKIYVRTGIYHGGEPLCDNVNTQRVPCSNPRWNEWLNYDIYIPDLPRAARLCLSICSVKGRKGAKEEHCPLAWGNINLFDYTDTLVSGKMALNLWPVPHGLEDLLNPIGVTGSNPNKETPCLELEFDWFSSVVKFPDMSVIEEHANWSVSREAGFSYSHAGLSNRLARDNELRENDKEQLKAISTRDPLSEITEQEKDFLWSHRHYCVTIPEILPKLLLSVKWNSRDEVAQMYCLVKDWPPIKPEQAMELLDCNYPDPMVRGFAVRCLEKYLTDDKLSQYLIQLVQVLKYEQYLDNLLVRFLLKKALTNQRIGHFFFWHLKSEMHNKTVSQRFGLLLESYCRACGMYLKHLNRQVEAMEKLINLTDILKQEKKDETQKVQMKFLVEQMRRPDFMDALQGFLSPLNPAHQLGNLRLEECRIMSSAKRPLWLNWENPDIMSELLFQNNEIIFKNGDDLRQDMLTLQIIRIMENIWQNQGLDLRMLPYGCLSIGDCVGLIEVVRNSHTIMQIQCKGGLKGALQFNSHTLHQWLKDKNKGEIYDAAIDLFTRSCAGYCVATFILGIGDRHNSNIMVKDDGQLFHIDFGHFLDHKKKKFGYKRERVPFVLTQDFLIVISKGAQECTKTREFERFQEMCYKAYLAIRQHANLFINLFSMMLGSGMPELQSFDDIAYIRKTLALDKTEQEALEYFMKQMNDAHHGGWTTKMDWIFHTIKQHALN
Sequence (P27986 whole entry partner): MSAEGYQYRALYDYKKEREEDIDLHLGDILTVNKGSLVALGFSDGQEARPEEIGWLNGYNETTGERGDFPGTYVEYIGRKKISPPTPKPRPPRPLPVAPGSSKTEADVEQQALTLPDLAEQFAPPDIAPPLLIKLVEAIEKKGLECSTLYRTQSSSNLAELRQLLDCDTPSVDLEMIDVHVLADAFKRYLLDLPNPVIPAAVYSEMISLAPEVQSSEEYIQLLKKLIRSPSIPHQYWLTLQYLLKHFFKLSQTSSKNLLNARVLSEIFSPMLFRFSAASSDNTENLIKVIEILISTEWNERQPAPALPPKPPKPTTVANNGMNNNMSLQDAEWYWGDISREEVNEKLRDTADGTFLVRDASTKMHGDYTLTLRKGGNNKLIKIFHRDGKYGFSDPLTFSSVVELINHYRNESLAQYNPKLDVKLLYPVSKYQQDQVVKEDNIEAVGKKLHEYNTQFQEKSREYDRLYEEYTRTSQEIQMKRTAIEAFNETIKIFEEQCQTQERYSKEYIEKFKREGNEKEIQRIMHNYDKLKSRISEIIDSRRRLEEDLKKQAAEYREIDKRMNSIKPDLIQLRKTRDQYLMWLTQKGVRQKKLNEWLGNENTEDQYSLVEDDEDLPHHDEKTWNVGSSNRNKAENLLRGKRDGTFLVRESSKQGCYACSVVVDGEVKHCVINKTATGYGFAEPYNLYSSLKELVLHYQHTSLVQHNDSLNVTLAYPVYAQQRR
Test: Inhibition of PI3Kα (ADP-Glo kinase activity assay, ATP to ADP conversion)
Format: biochemical
Conditions: 25 μM PIP2:PS, 60 μM ATP, 30 min reaction, luminescence
property: PI3Ka IC50 (µM)
Answer with a number only, understood to be in µM.

Solved entries:
1) O=S(=O)(c1ccccc1)c1cc(-c2cnc(NCCO)nc2)cc(N2CCOCC2)c1    2.9
2) Nc1ncc(-c2cc(N3CCOCC3)cc(S(=O)(=O)c3cccc(C(F)(F)F)c3)c2)cn1    1.8
3) Nc1ncc(-c2cc(Oc3ccccc3OC(F)(F)F)cc(N3CCOCC3)n2)cn1    0.37

Prompt: What value of PI3Ka IC50 has been reported for the following compound? CC(C)(C)OC(=O)N1CCN(c2cc(-c3cnc(N)nc3)cc(S(=O)(=O)c3ccccc3)c2)CC1
Completion: 21

Prompt: Likewise for Nc1ncc(-c2cc(N3CCOCC3)cc(S(=O)(=O)c3cccc4ccoc34)c2)cn1 ?
Completion: 0.40

Prompt: Cool, now Nc1ncc(-c2cc(S(=O)(=O)[C@H]3CCOC3)cc(N3CCOCC3)n2)cn1 [Compound 142a]
Completion: 0.0057

Prompt: Same for O=C(C1CC1)N1CC(S(=O)(=O)c2cc(-c3cnc(NC4CC4)nc3)cc(N3CCOCC3)c2)C1
Completion: 0.54

Prompt: Also Nc1cc(C(F)(F)F)c(-c2cc(N3CCOCC3)cc(S(=O)(=O)c3ccccc3)c2)cn1 , if possible.
Completion: 3.8

* * *

Biological target: PI3Kα (Homo sapiens (Human))
Experiment: Inhibition of PI3Kα (ADP-Glo kinase activity assay, ATP to ADP conversion)
Assay type: biochemical
Conditions: 25 μM PIP2:PS, 60 μM ATP, 30 min reaction, luminescence
Counter-ions that a name gives are not always drawn.
property: PI3Ka IC50 (nM)
Write down the numeric answer in nM and omit the unit.

1) Nc1ncc(-c2cc(N3CCOCC3)cc(S(=O)(=O)C3CN(Cc4ccc(F)cc4)C3)c2)cn1 [Compound 80]    660

Prompt: Please look up its PI3Ka IC50: Nc1ncc(-c2cc(N3CCOCC3)cc(S(=O)(=O)Cc3ccncc3)c2)cn1 [Compound 97]
Completion: 510

Prompt: Subsequent entry: Nc1ncc(-c2cc(C(=O)c3ccccc3)cc(N3CCOCC3)n2)cn1 [Compound 122]
Completion: 37

Prompt: // same read-out, input: Nc1cc(C(F)(F)F)c(-c2cc(S(=O)(=O)c3ccccc3)cc(N3CCOCC3)n2)cn1 [Compound 144]
Completion: 390

Prompt: Please do the same for CC(C)(C)C(=O)N1CC(S(=O)(=O)c2cc(-c3cnc(N)nc3)cc(N3CCOCC3)c2)C1 [Compound 86] as well.
Completion: 580

Prompt: # iterate: CC(C)(C)OC(=O)N1CC(S(=O)(=O)c2cc(-c3cnc(N)nc3)cc(N3CCOCC3)c2)C1 [Compound 54]
Completion: 130

Prompt: What would you report for Nc1ncc(-c2cc(N3CCOCC3)cc(S(=O)(=O)Cc3c[nH]cn3)c2)cn1 [59 (as a TFA salt)] ?
Completion: 460

Prompt: Next record, please: CCNC(=O)Nc1ccc(-c2cc(N3CCOCC3)cc(S(=O)(=O)Cc3ccc(F)cc3)c2)cc1OC [Compound 40]
Completion: 6500
